assay: proliferation blockers of H69AR lung cancer cells, primary screen, cell-based, human, 86K library (AID 598); conditions: H69AR lung tumor viability, ATP luminescence, 72 h; at 10 µM; hits give low values;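 also: multidrug resistant small cell line overexpressing MRP-1 efflux transporter; 100% = mean luminescence of untreated control wells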
Among all 85,000 compounds or so, about 5,100 (6%) were called active. The sample as a whole holds a higher share of actives than the screen did.
In plain terms, low viability, meaning strictly below 60%, gives 1, and everything else gives 0.

INSERT INTO results (query_smiles, class_label) VALUES
  ('Cc1ccc(-c2csc(SCC(=O)Nc3cc(C)on3)n2)cc1', 0),
  ('CC(C)Oc1ccc(C(=O)NC(C)(C)CO)cc1', 0),
  ('Cc1cccc(-c2noc(-c3ccc(F)cc3)n2)c1', 0);

# input Field: below-cutoff. Rule: recorded viability strictly less than 60%. Subject: Nc1ccc(Nc2ccccc2)cc1
# output 1

# input Field: below-cutoff. Rule: recorded viability strictly less than 60%. Subject: N/C(=N\OC(=O)Nc1ccc(Cl)c(Cl)c1)c1ncc(C(F)(F)F)cc1Cl
# output 1

# input Field: below-cutoff. Rule: recorded viability strictly less than 60%. Subject: CCOc1ccccc1N=C1NC(=O)CS1
# output 0

# input Field: below-cutoff. Rule: recorded viability strictly less than 60%. Subject: CC(C)Cc1nc(N2CCOCC2)c(C#N)c2c1CCC2
# output 0

# input Field: below-cutoff. Rule: recorded viability strictly less than 60%. Subject: Cn1c(=O)c2c(ncn2CC(=O)N2CCN(c3ccccc3)CC2)n(C)c1=O
# output 0

# input Field: below-cutoff. Rule: recorded viability strictly less than 60%. Subject: Cc1cc(NC(=O)CS(=O)(=O)c2cn(C)c3ccccc23)no1
# output 0

# input Field: below-cutoff. Rule: recorded viability strictly less than 60%. Subject: COc1ccc(-c2nc(-c3ccccc3)no2)c(OC)c1
# output 0

====

assay: proliferation blockers of H69AR lung cancer cells, primary screen, cell-based, human, 86K library (AID 598); conditions: H69AR lung tumor viability, ATP luminescence, 72 h; at 10 µM; hits give low values
Hit rate of the full screen: of about 85,000 compounds, about 5,100 (6%) were called active. The full list was thinned out, with actives kept by preference.
In plain terms, low viability, meaning strictly below 90%, gives Criterion met, and everything else gives Criterion not met.

Below, 5 compounds whose answers are already recorded.
INSERT INTO measurements (compound, class_label) VALUES
  ('Cc1cccc(-c2nc3c(c(SCC(=O)N4CCOCC4)n2)CCCC3)c1', 'Criterion met'),
  ('Cc1cc(NC(=O)c2cc(-c3cccs3)on2)nn1Cc1ccc(Cl)cc1', 'Criterion met'),
  ('CC(C)CCNC(=O)Cn1c(=O)oc2cc(S(=O)(=O)N3CC(C)CC(C)C3)ccc21 (stereo not drawn)', 'Criterion met'),
  ('COC(=O)C1C(=O)NCC1c1ccc(C)cc1 (stereo not drawn)', 'Criterion met'),
  ('COC(=O)C1=C(Nc2ccc(C)cc2)C=C(C)C(C(=O)OC)C1c1ccc(F)cc1 (stereo not drawn)', 'Criterion met');

# input Field: below-cutoff. Rule: recorded viability strictly less than 90%. Subject: COc1ccc(CN2CN(C(C)C)CSC2=S)cc1
# output Criterion met

# input Field: below-cutoff. Rule: recorded viability strictly less than 90%. Subject: COC(=O)c1cc(NC(=O)CC2C(=O)NCCN2C(=O)c2ccc(F)cc2)cc(C(=O)OC)c1 (stereo not drawn)
# output Criterion met

# input Field: below-cutoff. Rule: recorded viability strictly less than 90%. Subject: CC(=O)NC1=NN(C(C)=O)C(C)(c2ccc(Cl)s2)S1 (stereo not drawn)
# output Criterion met

# input Field: below-cutoff. Rule: recorded viability strictly less than 90%. Subject: CC1(C)Cc2c(sc3nc(SCC(=O)NCc4ccccc4)n(-c4ccccc4)c(=O)c23)CS1
# output Criterion met

# input Field: below-cutoff. Rule: recorded viability strictly less than 90%. Subject: COc1ccc(-c2nn(-c3ccccc3)cc2C(=O)Nc2nc(CC(C)=O)ns2)cc1
# output Criterion met

====

Each entry below lists one item and its recorded viability value.
assay: proliferation blockers of H69AR lung cancer cells, primary screen, cell-based, human, 86K library (AID 598); settings: H69AR lung tumor viability, ATP luminescence, 72 h; at 10 µM; hits give low values;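 also: multidrug resistant small cell line overexpressing MRP-1 efflux transporter; 100% = mean luminescence of untreated control wells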
Screen size: about 85,000 compounds; about 5,100 (6%) were called active. The sample holds actives, similar compounds and a random draw of the others, so the mix is not that of the screen.
State just the number; it will be interpreted in %.

Looking up Cc1ccc(NS(=O)(=O)c2c(C)[nH]c(=O)[nH]c2=O)cc1C , I see its viability listed as 112

Looking up CC(=O)c1cccc(NC(=O)Nc2ccc(C)cc2)c1 , I see its viability listed as 95.3

Looking up O=C(Cc1ccc(-n2c(=O)c3sccc3n(Cc3ccc(F)cc3)c2=O)cc1)NCc1ccco1 , I see its viability listed as 51

Looking up Cc1nc2ccccc2c(=O)n1CCCn1ccnc1 , I see its viability listed as 99

Looking up C=C1c2cc(CC)ccc2NC(=O)N1c1ccc(C)cc1 , I see its viability listed as 91.4

Looking up CCOc1cc(-c2cc(-c3ccc(OC)cc3)nc(N)c2C#N)ccc1O , I see its viability listed as 51

Looking up CCCNC(=O)c1ccc(Cl)c(Cl)c1 , I see its viability listed as 96

Looking up CC1(C)NC(=O)N(CCCCSc2ccc(Cl)cc2)C1=O , I see its viability listed as 79

Looking up COc1ccc(N2CCN(C(=O)CCc3nc(-c4ccc(C)cc4)no3)CC2)cc1 , I see its viability listed as 98.4

Looking up CCOC(=O)C1=C(CNC2CCCCC2)NC(=O)NC1c1cc(C)ccc1C (stereo unspecified) , I see its viability listed as 80.5

Looking up CCN(CC)S(=O)(=O)c1ccc2c3c(cccc13)C(=O)S2 , I see its viability listed as 69

Looking up CCOC(=O)c1sc(NC(=O)c2ccncc2)nc1C , I see its viability listed as 96.2

Looking up O=C(Cc1c(O)c2ccccc2[nH]c1=O)NCc1ccccc1 , I see its viability listed as 101

Looking up Cc1onc(-c2ccccc2Cl)c1C(=O)OCC(=O)c1ccccc1 , I see its viability listed as 97

Looking up CCOc1ccc(N=C2NC(=O)S/C2=C\c2ccc(O)cc2)cc1 , I see its viability listed as 47.5

Looking up CC1CCc2c(nc3ncnn3c2Nc2ccc(OC(F)(F)F)cc2)C1 (stereo unspecified) , I see its viability listed as 69.4

Looking up CC(C)CC(=O)Nc1cc(C(F)(F)F)ccc1N1CCOCC1 , I see its viability listed as 80.6

====

assay: proliferation blockers of H69AR lung cancer cells, primary screen, cell-based, human, 86K library (AID 598); conditions: H69AR lung tumor viability, ATP luminescence, 72 h; at 10 µM;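 also: multidrug resistant small cell line overexpressing MRP-1 efflux transporter; 100% = mean luminescence of untreated control wells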
The campaign covered roughly 85,000 compounds. About 5,100 (6%) were called active.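 Rule for the calls: active = viability at or below 40%; inactive = viability above 40%.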 The sample holds actives, similar compounds and a random draw of the others, so the mix is not that of the screen.
// allowed return values: active, inactive

Below, 2 compounds whose answers are already recorded.
INSERT INTO measurements (compound, class_label) VALUES
  ('COc1ccc2[nH]c(=O)c(CN(Cc3nnnn3CCc3ccccc3)CC3CCCO3)cc2c1 (stereo unspecified)', 'inactive'),
  ('C=CCn1c(SCc2c(C)noc2C)nc2sc3c(c2c1=O)CCC(C)C3 (stereo unspecified)', 'active');

# input For O=C(CN1CCN(S(=O)(=O)/C=C/c2ccccc2)CC1)NC(=O)NCc1ccco1 , what call appears in the results of this test?
# output inactive

# input For CCOc1ccc2[nH]c(=O)c(CN(Cc3nnnn3CCc3ccccc3)CC3CCCO3)cc2c1 (stereo unspecified) , what call appears in the results of this test?
# output inactive

# input For Cc1nn(C)cc1CNC(=O)Nc1ccc(Cl)cc1 , what call appears in the results of this test?
# output inactive

# input For O=C(Nc1cccc(Cl)c1)Nc1nnc(-c2ccccc2)o1 , what call appears in the results of this test?
# output inactive

====

test: proliferation blockers of H69AR lung cancer cells, primary screen, cell-based, human, 86K library (AID 598); details: H69AR lung tumor viability, ATP luminescence, 72 h; at 10 µM; hits give low values;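 also: multidrug resistant small cell line overexpressing MRP-1 efflux transporter; 100% = mean luminescence of untreated control wells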
Screen size: about 85,000 compounds; about 5,100 (6%) were called active. Shown is part of a subset that was picked to be rich in actives.
Each entry below lists one item and its recorded viability value.
State just the number; it will be interpreted in %.

INSERT INTO results (compound, unit_text, observed_result) VALUES
  ('Cn1c(=O)n(C)c2cc(S(=O)(=O)N3CCCc4ccccc43)ccc21', '%', 21.1),
  ('Cn1c(=O)c(=O)n(C)c2cc(S(=O)(=O)NCCc3ccccc3)ccc21', '%', 94.1),
  ('Cn1c(SCC(=O)C(C)(C)C)nnc1-c1ccccn1', '%', 98.3);

Now for a further compound.
Looking up Cc1cc(=O)oc2ccc(OCC(=O)O)cc12 , I see its viability listed as 97.4
